- System: 967376-340-R-J2-PDC multicell spheroid viability
- MEASUREMENT_DESCRIPTION: Anticancer human tumor 967376-340-R-J2-PDC patient-derived colon adenocarcinoma cell line growth inhibition [PI3K]
- DETAILS: second compound 10 µM; first compound 0.0316 µM; stronger effect = lower value
viability, T/C values, listed per item
Return type: number; implicit unit %.

Examples with answers:
COMPOUND	viability, T/C / %
CCN1CCN(Cc2ccc(Nc3ncc(F)c(-c4cc(F)c5nc(C)n(C(C)C)c5c4)n3)nc2)CC1 + CC(Nc1ncnc2nc[nH]c12)c1cc2cccc(Cl)c2c(=O)n1-c1ccccc1	72
Cn1ncc(Cl)c1-c1cc(C(=O)NC(CN)Cc2cccc(F)c2)sc1Cl (stereo unspecified) + CC(Nc1ncnc2nc[nH]c12)c1cc2cccc(Cl)c2c(=O)n1-c1ccccc1	79.4
C=CC(=O)N1CCN(c2nc(=O)n(-c3c(C)ccnc3C(C)C)c3nc(-c4c(O)cccc4F)c(F)cc23)C(C)C1 (stereo unspecified) + CC(Nc1ncnc2nc[nH]c12)c1cc2cccc(Cl)c2c(=O)n1-c1ccccc1	75.7
CCN1CCN(Cc2ccc(Nc3ncc(F)c(-c4cc(F)c5nc(C)n(C(C)C)c5c4)n3)nc2)CC1 + Cc1nc(NC(=O)N2CCCC2C(N)=O)sc1-c1ccnc(C(C)(C)C(F)(F)F)c1	45.4
Cn1ncc(Cl)c1-c1cc(C(=O)NC(CN)Cc2cccc(F)c2)sc1Cl (stereo unspecified) + Cc1nc(NC(=O)N2CCCC2C(N)=O)sc1-c1ccnc(C(C)(C)C(F)(F)F)c1	60.4

We next turn to a different compound, shown below.
INPUT: Using the record for CC(Cn1ccc(-c2ccc(C#N)c(Cl)c2)n1)NC(=O)c1cc(C(C)O)[nH]n1 (stereo unspecified) + CC(Nc1ncnc2nc[nH]c12)c1cc2cccc(Cl)c2c(=O)n1-c1ccccc1 , report its viability, T/C.
OUTPUT: 91.5

---

viability, T/C values, listed per item
- System: 967376-340-R-J2-PDC multicell spheroid viability
- MEASUREMENT_DESCRIPTION: Anticancer human tumor 967376-340-R-J2-PDC cell line growth inhibition [PI3K];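 also: spheroids exposed to agents for 7 days before read-out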;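 as to viability, T/C: luminescence used as surrogate of cell viability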
- DETAILS: second compound 0.0316 µM; first compound 0.0316 µM; stronger effect = lower value
Return type: number; implicit unit %.

Examples with answers:
COMPOUND	OBSERVED_PROPERTY	UNIT_LABEL	VALUE_OBSERVED
CNC(=O)c1ccc(N2C(=S)N(c3ccc(C#N)c(C(F)(F)F)c3)C(=O)C2(C)C)cc1F + CC(Nc1ccc2c(c1)OCCn1cc(N3C(=O)OCC3C(F)F)nc1-2)C(N)=O	viability, T/C	%	83.1
C[C@@H](NC(=O)c1ncnc(N)c1Cl)c1ncc(C(=O)Nc2cc(C(F)(F)F)c(Cl)cn2)s1 + CC(Nc1ccc2c(c1)OCCn1cc(N3C(=O)OCC3C(F)F)nc1-2)C(N)=O	viability, T/C	%	62.2
C[C@@H](NC(=O)c1ncnc(N)c1Cl)c1ncc(C(=O)Nc2cc(C(F)(F)F)c(Cl)cn2)s1 + Cc1nc(NC(=O)N2CCCC2C(N)=O)sc1-c1ccnc(C(C)(C)C(F)(F)F)c1	viability, T/C	%	87.1

INPUT: Using the record for Cn1ncc(Cl)c1-c1cc(C(=O)NC(CN)Cc2cccc(F)c2)sc1Cl (centres undefined) + CC(Nc1ncnc2nc[nH]c12)c1cc2cccc(Cl)c2c(=O)n1-c1ccccc1 , report its viability, T/C.
OUTPUT: 99

INPUT: Using the record for CNC(=O)c1ccc(N2C(=S)N(c3ccc(C#N)c(C(F)(F)F)c3)C(=O)C2(C)C)cc1F + CC(Nc1ncnc2nc[nH]c12)c1cc2cccc(Cl)c2c(=O)n1-c1ccccc1 , report its viability, T/C.
OUTPUT: 140

INPUT: Using the record for C=CC(=O)N1CCN(c2nc(=O)n(-c3c(C)ccnc3C(C)C)c3nc(-c4c(O)cccc4F)c(F)cc23)C(C)C1 (centres undefined) + COc1c(OCCCN2CCOCC2)ccc2c3n(c(=NC(=O)c4cnc(N)nc4)nc12)CCN3 , report its viability, T/C.
OUTPUT: 74

---

- System: 967376-340-R-J2-PDC multicell spheroid viability
- MEASUREMENT_DESCRIPTION: Anticancer human tumor 967376-340-R-J2-PDC cell line growth inhibition [PI3K];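 also: spheroids exposed to agents for 7 days before read-out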
- DETAILS: curve of first compound; second compound 0.0316 µM
- Excerpt: Combinatorial screen of targeted agents with the PI3K inhibitors inavolisib, alpelisib, duvelisib, and copanlisib in multi-cell type tumor spheroids A high-throughput screen of multi-cell type tumor spheroids was designed to identify active combinations of targeted small molecules and PI3K pathway inhibitors. […] Compounds. […] If the clinical Cmax for an agent had not been determined, the highest concentration tested was 10 microM. […]
OBSERVED_PROPERTY: IC50

Examples with answers:
COMPOUND	TEST_TARGET	VALUE_OBSERVED
CC(C)NCC(C(=O)N1CCN(c2ncnc3c2C(C)CC3O)CC1)c1ccc(Cl)cc1 (centres undefined) + CC(Nc1ncnc2nc[nH]c12)c1cc2cccc(Cl)c2c(=O)n1-c1ccccc1	967376-340-R-J2-PDC multicell spheroid viability	> 10 µM
CC(C)n1nc(-c2ccc3oc(N)nc3c2)c2c(N)ncnc21 + COc1c(OCCCN2CCOCC2)ccc2c3n(c(=NC(=O)c4cnc(N)nc4)nc12)CCN3	967376-340-R-J2-PDC multicell spheroid viability	0.0329 µM
Cn1ncc(Cl)c1-c1cc(C(=O)NC(CN)Cc2cccc(F)c2)sc1Cl (centres undefined) + Cc1nc(NC(=O)N2CCCC2C(N)=O)sc1-c1ccnc(C(C)(C)C(F)(F)F)c1	967376-340-R-J2-PDC multicell spheroid viability	> 10 µM
Cn1nccc1Nc1nccc(-c2ccn(C(CO)c3ccc(Cl)c(F)c3)c(=O)c2)n1 (centres undefined) + Cc1nc(NC(=O)N2CCCC2C(N)=O)sc1-c1ccnc(C(C)(C)C(F)(F)F)c1	967376-340-R-J2-PDC multicell spheroid viability	> 10 µM
C=CC(=O)N1CCN(c2nc(=O)n(-c3c(C)ccnc3C(C)C)c3nc(-c4c(O)cccc4F)c(F)cc23)C(C)C1 (centres undefined) + COc1c(OCCCN2CCOCC2)ccc2c3n(c(=NC(=O)c4cnc(N)nc4)nc12)CCN3	967376-340-R-J2-PDC multicell spheroid viability	> 10 µM

INPUT: Using the record for CCN1CCN(Cc2ccc(Nc3ncc(F)c(-c4cc(F)c5nc(C)n(C(C)C)c5c4)n3)nc2)CC1 + COc1c(OCCCN2CCOCC2)ccc2c3n(c(=NC(=O)c4cnc(N)nc4)nc12)CCN3 , report its IC50.
OUTPUT: 0.769 µM

INPUT: Using the record for CC(C)NCC(C(=O)N1CCN(c2ncnc3c2C(C)CC3O)CC1)c1ccc(Cl)cc1 (centres undefined) + Cc1nc(NC(=O)N2CCCC2C(N)=O)sc1-c1ccnc(C(C)(C)C(F)(F)F)c1 , report its IC50.
OUTPUT: > 10 µM

INPUT: Using the record for CC(Cn1ccc(-c2ccc(C#N)c(Cl)c2)n1)NC(=O)c1cc(C(C)O)[nH]n1 (centres undefined) + Cc1nc(NC(=O)N2CCCC2C(N)=O)sc1-c1ccnc(C(C)(C)C(F)(F)F)c1 , report its IC50.
OUTPUT: > 10 µM

INPUT: Using the record for C[C@@H](NC(=O)c1ncnc(N)c1Cl)c1ncc(C(=O)Nc2cc(C(F)(F)F)c(Cl)cn2)s1 + COc1c(OCCCN2CCOCC2)ccc2c3n(c(=NC(=O)c4cnc(N)nc4)nc12)CCN3 , report its IC50.
OUTPUT: > 10 µM

INPUT: Using the record for CCCS(=O)(=O)Nc1ccc(F)c(C(=O)c2c[nH]c3ncc(-c4ccc(Cl)cc4)cc23)c1F + CC(Nc1ncnc2nc[nH]c12)c1cc2cccc(Cl)c2c(=O)n1-c1ccccc1 , report its IC50.
OUTPUT: > 10 µM

INPUT: Using the record for Cn1cnc2c(F)c(Nc3ccc(Br)cc3Cl)c(C(=O)NOCCO)cc21 + CC(Nc1ncnc2nc[nH]c12)c1cc2cccc(Cl)c2c(=O)n1-c1ccccc1 , report its IC50.
OUTPUT: 1.46 µM

INPUT: Using the record for CC(C)NCC(C(=O)N1CCN(c2ncnc3c2C(C)CC3O)CC1)c1ccc(Cl)cc1 (centres undefined) + CC(Nc1ccc2c(c1)OCCn1cc(N3C(=O)OCC3C(F)F)nc1-2)C(N)=O , report its IC50.
OUTPUT: > 10 µM

INPUT: Using the record for Cn1ncc(Cl)c1-c1cc(C(=O)NC(CN)Cc2cccc(F)c2)sc1Cl (centres undefined) + CC(Nc1ncnc2nc[nH]c12)c1cc2cccc(Cl)c2c(=O)n1-c1ccccc1 , report its IC50.
OUTPUT: > 10 µM

INPUT: Using the record for CC(C)NCC(C(=O)N1CCN(c2ncnc3c2C(C)CC3O)CC1)c1ccc(Cl)cc1 (centres undefined) + COc1c(OCCCN2CCOCC2)ccc2c3n(c(=NC(=O)c4cnc(N)nc4)nc12)CCN3 , report its IC50.
OUTPUT: > 10 µM
